Where these numbers come from: the supplement of paper PMC9112550

Test system: Escherichia coli TOP10;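 note: peptides expressed intracellularly from a pBAD plasmid library in pooled LB shake-flask culture, induced with 0.3% L-arabinose, DNA abundance read by NGS, three biological replicates, DESeq2 with apeglm shrinkage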
EXPERIMENT_NOTES: shrunken log2 fold change of peptide-encoding DNA abundance (4.5 h post-induction vs induction); higher = less antimicrobial activity (less host growth inhibition)
CONDITION_INFO: time post-induction: 4.5 h; library: site-saturation at positions 5, 18, 19, 20
Decide by shrunken log2 fold change: equal to or exceeding -0.02 means 1, less means -1.

# example entries with known answers
SEQ_TEXT | GROUP
RRIRARPPRLPRPRPRPIMGPRP | 1
RRIRWRPPRLPRPRPRPRDIPRP | -1
RRIRFRPPRLPRPRPRPCILPRP | -1
RRIRGRPPRLPRPRPRPSCRPRP | 1
RRIRLRPPRLPRPRPRPACEPRP | 1
RRIRDRPPRLPRPRPRPGYAPRP | 1

Lookup: Please tell me: is the sequence RRIRERPPRLPRPRPRPCTLPRP at or over -0.02 in terms of shrunken log2 fold change?
Found: -1

Lookup: What do you have for RRIRKRPPRLPRPRPRPDNAPRP ?
Found: 1

Lookup: Also check RRIRVRPPRLPRPRPRPLQQPRP
Found: -1

Lookup: Same again, this time with RRIRARPPRLPRPRPRPTTYPRP
Found: -1

Lookup: Then RRIRLRPPRLPRPRPRPYSFPRP ?
Found: -1

Lookup: Again, but for RRIRVRPPRLPRPRPRPKVAPRP
Found: 1

Lookup: Follow-up entry: RRIRPRPPRLPRPRPRPANYPRP
Found: 1

Lookup: What about RRIRWRPPRLPRPRPRPYTEPRP ?
Found: -1

Lookup: Now consider RRIRFRPPRLPRPRPRPCDFPRP and answer again.
Found: -1

Lookup: Same thing, different sequence: RRIRRRPPRLPRPRPRPRCVPRP
Found: 1

Lookup: What do you get for RRIRHRPPRLPRPRPRPAVSPRP ?
Found: -1

Lookup: Moving on to the next sequence: RRIRYRPPRLPRPRPRPRMCPRP
Found: 1

Lookup: Also RRIRCRPPRLPRPRPRPHLMPRP ?
Found: -1

Lookup: Next: RRIRQRPPRLPRPRPRPEMLPRP
Found: 1

Lookup: Can you check RRIRVRPPRLPRPRPRPMSTPRP next?
Found: -1

Lookup: Record: RRIRVRPPRLPRPRPRPQYTPRP
Found: -1

Lookup: Likewise for RRIRKRPPRLPRPRPRPLRVPRP ?
Found: 1

Lookup: Next sequence up: RRIRDRPPRLPRPRPRPKPYPRP
Found: -1

Lookup: Could you do the same for RRIRHRPPRLPRPRPRPRLEPRP , please?
Found: 1
